Value source: patent US8022091B2

Hi there, I'd appreciate the recorded IC50 for every entry that follows.
measurement.target: human Edg-1 (S1P1) (Homo sapiens, UniProt P21453)
Sequence (P21453 whole entry): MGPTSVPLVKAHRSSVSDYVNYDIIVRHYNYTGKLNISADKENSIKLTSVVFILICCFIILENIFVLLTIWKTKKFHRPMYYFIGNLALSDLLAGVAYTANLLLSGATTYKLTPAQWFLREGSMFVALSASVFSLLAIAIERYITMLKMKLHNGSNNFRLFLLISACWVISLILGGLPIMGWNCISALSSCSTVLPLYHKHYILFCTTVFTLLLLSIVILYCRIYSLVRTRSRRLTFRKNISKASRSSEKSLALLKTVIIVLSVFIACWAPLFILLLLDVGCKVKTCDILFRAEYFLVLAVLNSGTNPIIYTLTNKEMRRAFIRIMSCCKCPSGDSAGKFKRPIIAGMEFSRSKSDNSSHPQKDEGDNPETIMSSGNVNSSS
measurement.notes: S1P1 binding assay: inhibition of [33P]-S1P binding to membrane fraction of HEK-293 cells transferred with the human Edg-1 (S1P1) gene
experimental.parameters: [33P]-S1P 0.1 nM, human Edg-1 (S1P1) HEK-293 membrane fraction, 1 h at 30° C.; read-out: IC50 (concentration at which binding in the absence of the test compound was inhibited by 50%)

- CCn1c(Oc2cccc(N3CCN(C)CC3)c2)nnc1[C@@H](C)NS(=O)(=O)/C=C/c1ccccc1: 12 nM

Hi there! I need IC50 for each item below, if you can.
1. CCn1c(Oc2ccc(F)cc2)nnc1[C@@H](C)NS(=O)(=O)c1ccc2c(Cl)cccc2c1
2. CCn1c(Oc2ccc(C(C)C)cc2)nnc1[C@@H](C)NS(=O)(=O)c1ccc(Cl)c(Cl)c1
3. CCn1c(Oc2cccc(C(C)C)c2)nnc1[C@@H](C)NS(=O)(=O)c1ccc(Cl)c(Cl)c1

Return:
≤ 10 nM
≤ 10 nM
≤ 10 nM

###

measurement.target: human Edg-1 (S1P1) (Homo sapiens, UniProt P21453)
Construct: expressed in transfected cells; host or cells: HEK-293
measurement.notes: S1P1 binding assay: inhibition of [33P]-S1P binding to membrane fraction of HEK-293 cells transferred with the human Edg-1 (S1P1) gene
experimental.parameters: test compound at 10 μM; inhibition of [33P]-S1P binding to the membrane fraction of HEK-293 cells expressing human Edg-1 (S1P1)
Provide the reported inhibition at 10 µM of each item.
Reply with the number and its unit after it.

Examples with their reported inhibition at 10 µM follow.
- CCn1c(Oc2ccc(F)cc2)nnc1[C@@H](C)NS(=O)(=O)c1cccc(C)c1 [Compound 192]: 95.2%
- CCn1c(Oc2ccccc2)nnc1[C@@H](Cc1ccccc1)NS(=O)(=O)c1ccc(Cl)c(Cl)c1 [Compound 1]: 93.4%
- CCn1c(Oc2ccc(N3CCCC3)cc2)nnc1[C@@H](C)NS(=O)(=O)c1ccc(Cl)c(Cl)c1 [Compound 49]: 102%

Enquiry: Give a short answer stating reported inhibition at 10 µM for CCn1c(Oc2cc(C)c(C)c(C)c2)nnc1[C@@H](C)NS(=O)(=O)c1ccc(Cl)c(Cl)c1 [Compound 18] .
Return: 102%

###

measurement.target: human Edg-1 (S1P1) (Homo sapiens, UniProt P21453)
Construct: expressed in transfected cells; host or cells: HEK-293
measurement.notes: S1P1 binding assay: inhibition of [33P]-S1P binding to membrane fraction of HEK-293 cells transferred with the human Edg-1 (S1P1) gene
experimental.parameters: test compound 10 μM; inhibition of [33P]-S1P binding, membrane fraction
recorded.metric: inhibition at 10 µM
Write the figure, then the unit, nothing else.

Some molecules with known inhibition at 10 µM results, for comparison:
* CCn1c(Oc2ccc3cc[nH]c3c2)nnc1[C@@H](C)NS(=O)(=O)c1c(F)cc(F)cc1Br | 67.5%
* CCn1c(Oc2cccc(N3CCN(C)CC3)c2)nnc1[C@@H](C)NS(=O)(=O)c1cc(Cl)c(Cl)cc1Cl | 112%

Enquiry: Please report inhibition at 10 µM for the following molecule: "CCn1c(Oc2cccc(N3CCN(C)CC3)c2)nnc1[C@@H](C)NS(=O)(=O)c1c(Cl)cccc1Cl"
Return: 60.7%
